TGI reference
Tested on: XF 498 CNS
Assay: NCI tumour cell line growth inhibition, 48 h
Just the number in µM, nothing appended.

Solved cases (3 shown):
1. CCCCC(N)CSSCC(N)CCCC (stereo not given); 34.9
2. Cn1cc2ccccc2c1-c1nc(F)nc(Nc2ccc(N)cc2)n1; 30
3. CC(C)Cc1ccc(C(C)/C=C2\CCC(CN3CCCCC3)C2=O)cc1 (stereo not given); 16

Shifting focus to the compound that follows.
Task: What measured TGI goes with CSC1SCC2C(=O)N(C)C(C(C)C)C(=O)OCC(NC(=O)c3cnc4ccccc4n3)C(=O)NC(C)C(=O)N(C)C1C(=O)N(C)C(C(C)C)C(=O)OCC(NC(=O)c1cnc3ccccc3n1)C(=O)NC(C)C(=O)N2C (stereo not given) ?
Output: 5.67e-05

---

Tested on: HCT-116 colon
Experiment: NCI tumour cell line growth inhibition, 48 h
Below is a list of entries, each paired with its recorded TGI value.
Kindly provide the numeric value in µM only, without the unit symbol.

Look over these answered cases.
1) CCN(CCCl)c1cc(CN(C)C)cc(NC(=O)c2ccc(C(=O)Nc3ccccc3)cc2)c1; 11.5
2) C[C@H](CO)C1=CC(C#C[Si](C)(C)C)N(C(=O)Oc2ccccc2)c2ccccc21 (stereo partly specified); 22.7
3) O=C1c2ccccc2-c2c1c1ccc([N+](=O)[O-])cc1c(=O)n2CCCn1ccnc1; 0.652

Task: Using the record for O=C(Nc1ccc(-n2ccc3c(NC(=O)c4ccccc4)nccc32)cc1)c1ccc(N2CCOCC2)c(C(F)(F)F)c1 , report its TGI.
Output: 15.7

---

Test system: K-562 leukemia
Test: NCI tumour cell line growth inhibition, 48 h
Overview of recorded TGI for various compounds

Use the examples below as a reference point.
1) CCCCCCC(=O)c1ccc2ccccc2c1O; > 100 µM
2) C=C(C1=CC(=O)C(C)(C)O1)[C@@H]1CC=C([C@@H]2CC[C@H]3[C@@]2(C)CC[C@H]2C(C)(C)C(=O)[C@H](OC(=O)CC(C)(O)CC(=O)O)C[C@]32C)[C@H](O)O1 (some centres undefined); > 75 µM
3) CCOc1ccc(N=Cc2ccc3ccccc3n2)cc1; > 100 µM
4) CCCC(=O)Nc1c(I)cc(I)c(CC(CC)C(=O)O)c1I (centres undefined); > 100 µM
5) COc1ccc(NC(=O)CC(=O)N2N=C(C)C(N=Nc3ccc(C(=O)O)cc3)C2=O)cc1 (centres undefined); > 100 µM
6) CCCCCCCCCCCCC(NC(C)=O)(C(=O)OCC)C(=O)OCC; > 100 µM
7) CO/N=C(\C(=O)[N-][n+]1cnn(CC(=O)O)c1)c1csc(N)n1; > 10 µM
8) COc1cccc(NC(=O)c2ccc(NC3=C(Cl)C(=O)N(Cc4ccccc4)C3=O)cc2)c1; 47.2 µM

Task: Value lookup for TGI; key = CCOC(OCC)[C@H](N)[C@@H](O)[C@@H](O)[C@H]1COC(C)(C)O1
Output: > 100 µM

---

Test system: DU-145 prostate
Test: NCI tumour cell line growth inhibition, 48 h
result_type: TGI (µM)
Report the value in µM with no unit label.

Task: Recorded TGI of CCCCCCC/C=C1\CCC(CN(C)C)C1=O (stereo not given) , please.
Output: 27.8

Task: And the next one, C[C@@H]1OC(=O)NN=C1c1ccc(-c2ccc(F)cc2)c(C(F)(F)F)c1 ?
Output: 20.7

Task: Then this molecule: O=c1c(-c2nc3ccccc3[nH]2)cc2ccccc2n1Cc1cn(Cc2ccccc2Cl)nn1
Output: 3.21

Task: Check CN[C@H]1CC[C@]23C[C@]24CC[C@]2(C)[C@@H]([C@H](C)N(C)C)CC[C@@]2(C)[C@@H]4CC[C@H]3C1(C)C too.
Output: 28.4

Task: Note, next up: CCCCCCCCCC[N+](C)(C)C
Output: 4.88

Task: Another molecule to look at: CC1(C)CC[C@]2(C(=O)O)CC[C@]3(C)C(=CC[C@@H]4[C@@]5(C)CC[C@H](OC6OC(CO)C(O)C(O)C6O)C(C)(C)[C@@H]5CC[C@]43C)[C@@H]2C1 (stereo not given in full)
Output: 4.49

Task: Then what about the molecule C[C@H](CO)C1=CC(C#C[Si](C)(C)C)N(C(=O)Oc2ccccc2)c2ccccc21 (stereo not given in full) ?
Output: 31.7

Task: Let us now turn to CCCc1n(Cc2ccc3ccccc3n2)cc[n+]1Cc1ccc2ccccc2c1
Output: 12.8

Task: Next up: O=C1c2ccccc2-c2c1c1ccc([N+](=O)[O-])cc1c(=O)n2CCCn1ccnc1
Output: 0.0542

---

Test system: NCI-H460 lung
Experiment: NCI tumour cell line growth inhibition, 48 h
result_type: TGI

Here's what some known entries look like.
1. CC(C)(C)OC(=O)N1CCC(NC(=O)NC2CCN(C(=O)OC(C)(C)C)CC2)CC1; > 100 µM
2. COc1c(Cl)[c]([Hg][O]C(C)=O)c(NCC(C)=O)c(OC)[c]1[Hg][O]C(C)=O; > 100 µM
3. Clc1nc(-c2ccccc2)nc(Cl)c1Cl; 42.7 µM
4. CC(CCC(=O)O)c1ccc(Br)cc1 (stereo unspecified); > 100 µM
5. CCOC(=O)/C=C/c1c[nH]c(=O)[nH]c1=O; > 75 µM

Okay, next one:
Task: Entry CCN(CC)CCOc1ccc(Cc2ccccc2)cc1 has what TGI?
Output: 62.1 µM

---

Test system: U251 CNS
Assay: NCI tumour cell line growth inhibition, 48 h
This listing pairs compounds with measured TGI.
State the answer as a number, implicitly in µM.

Example entries begin here.
1. Cc1ccc(-n2c3c(c4c(CN)c(O)ccc42)CCc2ccccc2C3=O)cc1; 32.5
2. CCCc1n(Cc2ccc3ccccc3n2)cc[n+]1Cc1ccc2ccccc2c1; 2.54

// next item, TGI requested
Task: Returns the measured TGI for the input compound. Input: CCCCCC(=C/c1ccccc1)/C=N/N=C(N)N
Output: 3.18

---

Tested on: SK-OV-3 ovarian
Test: NCI tumour cell line growth inhibition, 48 h
Recorded measurements of TGI, one per entry
The answer is to be given in µM; state only the numeric part.

Would you please look over these solved cases?
1) CCCCCCC/C=C1\CCC(CN(C)C)C1=O (centres undefined); 43
2) COc1ccc(/C=C2\CCc3ccccc3C2=O)cc1OC; 78.9
3) Fc1cc2nc3n(c2cc1F)C(c1c(Cl)cccc1Cl)SC3 (centres undefined); 30.6
4) COc1ccc2c(c1)c(=O)c1c(NCCCN(C)C)ccc3ncn2c31; 22.1
5) CCN(CCCl)c1cc(CN(C)C)cc(NC(=O)c2ccc(C(=O)Nc3ccccc3)cc2)c1; 11.1

Please look at the following compound next.
Task: What is its TGI for SK-OV-3 ovarian? Entry: CCCCCCCCCC[N+](C)(C)C
Output: 13

---

The molecules listed here are annotated with their TGI.
Tested on: U251 CNS
Assay: NCI tumour cell line growth inhibition, 48 h
// units = µM; emit number, no label

1. CC1(C)CC[C@]2(C(=O)O)CC[C@]3(C)C(=CC[C@@H]4[C@@]5(C)CC[C@H](OC6OC(CO)C(O)C(O)C6O)C(C)(C)[C@@H]5CC[C@]43C)[C@@H]2C1 (stereo not given in full); 3.05

Okay, now this molecule:
Task: # get_value(readout='TGI', item= Nc1nc(Cc2ccccc2)nc(Cc2ccccc2)c1-c1ccccc1 )
Output: 37.1

---

Test system: TK-10 renal
Experiment: NCI tumour cell line growth inhibition, 48 h; in the data active = GI50 below about 0.43 µM; inactive = the rest
Hi there, use one of these labels in your reply, thanks! active, inactive

Take a look at these entries with their results.
1. CN1CCN(c2ccc(-c3cccc(CN4CCOCC4)c3)cc2NC(=O)c2c[nH]c(=O)cc2C(F)(F)F)CC1; inactive
2. COC1C(O)CC(OC2CC(OC3CC(O[C@@H]4C(=O)c5c(cc6cc(OC7CC(OC8CC(O)C(O)C(C)O8)C(O)C(C)O7)c(C)c(O)c6c5O)CC4[C@H](OC)[C@@H](O)C(C)=O)OC(C)C3O)OC(C)C2O)OC1C (stereo partly drawn); active

Consider now this further compound.
Task: Tell me the assay call for Cc1ccc(-n2c3c(c4c(CN)c(O)ccc42)CCc2ccccc2C3=O)cc1 please.
Output: inactive

---

System: NCI-H522 lung
Assay: NCI tumour cell line growth inhibition, 48 h
TGI by entry:
Please respond with the number in µM and leave the unit unwritten.

Here are 3 molecules together with their reported answers.
1) ClCCc1ccccc1CC1=NCCc2ccccc21; 44
2) COc1cc2ccc3c4cc(OC)c(OC(C)C)cc4c[n+](C)c3c2cc1OC; 70.1
3) CCCCCCC(O)C(O)CCC(O)C1CCC(CCCCC(O)CC2=CC(C)OC2=O)O1 (stereo unspecified); 22.8

Turning now to a further molecule:
Task: Param readout= TGI; system= NCI-H522 lung; entry= C=CC(C)(C)n1cc(C2=C(O)C(=O)C(c3c(CC=C(C)C)[nH]c4ccccc34)=C(O)C2=O)c2ccccc21 ; returns value.
Output: 6.18
